# IC50 [pM], STAT5 phosphorylation inhibition in MUTZ5 cells per record follows
- system: hTSLP-His (human, UniProt Q969D9 29-159, limits assumed)
- experiment_notes: cell-based or functional assay
Answer format: number, then unit.

Ask: Look up IC50 [pM], STAT5 phosphorylation inhibition in MUTZ5 cells: BDG38.074 (antibody, V domains shown, also called BDG38.74) VH: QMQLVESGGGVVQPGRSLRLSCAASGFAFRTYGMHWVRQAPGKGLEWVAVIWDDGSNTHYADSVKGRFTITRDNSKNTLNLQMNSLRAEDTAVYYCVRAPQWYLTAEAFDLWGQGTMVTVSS VL: SYVLTQPPSVSVAPGQTATITCGGNMIGAYLVHWYQQKPGQAPLLVVYDDVDRPNRIPERFSGSNSGNTATLTISRVEAGDEADYYCQVWDHNTDKMVFGGGTKLTVL
Result: 46.7 pM

Ask: Look up IC50 [pM], STAT5 phosphorylation inhibition in MUTZ5 cells: BDG38.126 (antibody, V domains shown, IgG1) VH: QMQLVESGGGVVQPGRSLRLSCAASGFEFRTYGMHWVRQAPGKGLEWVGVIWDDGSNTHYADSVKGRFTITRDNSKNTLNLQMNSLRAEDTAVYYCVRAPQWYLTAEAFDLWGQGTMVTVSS VL: SYILTQPPSVSVAPGQTARITCGGNLIGAKLVHWYQQKPGQAPVLVIYDDSDRPSRIPERFSGSNIGNTATLTIERVEEGDEADYYCQVWDYSSDHMVFGGGTKLTVL
Result: 0.0421 pM

Ask: Look up IC50 [pM], STAT5 phosphorylation inhibition in MUTZ5 cells: BDG38.128 (antibody, V domains shown, IgG1) VH: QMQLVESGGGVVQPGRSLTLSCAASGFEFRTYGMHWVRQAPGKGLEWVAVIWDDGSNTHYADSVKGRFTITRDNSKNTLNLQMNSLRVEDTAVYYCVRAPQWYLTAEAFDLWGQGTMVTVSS VL: SYILTQPPSVSVAPGETATITCGGNLIGAKLVHWYQQKPGQAPVLVIYDDSDRPSRIPERFSGSNSGNTATLTISDVEEGDEADYYCQVWDYYADTMVFGGGTKLTVL
Result: 0.0048 pM
